// reported melting point for each item listed
Give just the number in °C; leave the unit off.

Query block: Entry C#CCOc1ccc(Br)cc1Br [Compound 2c, 2,4-dibromo-1-(prop-2-ynyloxy)benzene] has what melting point?
Result block: 157.95

Query block: Here is the next compound: C#CCOc1ccc(Br)cc1Cl [Compound 2a]
Result block: 29

---

# Target Entity: urease enzyme (Canavalia ensiformis, UniProt P07374)
# Sequence (P07374 whole entry, looked up): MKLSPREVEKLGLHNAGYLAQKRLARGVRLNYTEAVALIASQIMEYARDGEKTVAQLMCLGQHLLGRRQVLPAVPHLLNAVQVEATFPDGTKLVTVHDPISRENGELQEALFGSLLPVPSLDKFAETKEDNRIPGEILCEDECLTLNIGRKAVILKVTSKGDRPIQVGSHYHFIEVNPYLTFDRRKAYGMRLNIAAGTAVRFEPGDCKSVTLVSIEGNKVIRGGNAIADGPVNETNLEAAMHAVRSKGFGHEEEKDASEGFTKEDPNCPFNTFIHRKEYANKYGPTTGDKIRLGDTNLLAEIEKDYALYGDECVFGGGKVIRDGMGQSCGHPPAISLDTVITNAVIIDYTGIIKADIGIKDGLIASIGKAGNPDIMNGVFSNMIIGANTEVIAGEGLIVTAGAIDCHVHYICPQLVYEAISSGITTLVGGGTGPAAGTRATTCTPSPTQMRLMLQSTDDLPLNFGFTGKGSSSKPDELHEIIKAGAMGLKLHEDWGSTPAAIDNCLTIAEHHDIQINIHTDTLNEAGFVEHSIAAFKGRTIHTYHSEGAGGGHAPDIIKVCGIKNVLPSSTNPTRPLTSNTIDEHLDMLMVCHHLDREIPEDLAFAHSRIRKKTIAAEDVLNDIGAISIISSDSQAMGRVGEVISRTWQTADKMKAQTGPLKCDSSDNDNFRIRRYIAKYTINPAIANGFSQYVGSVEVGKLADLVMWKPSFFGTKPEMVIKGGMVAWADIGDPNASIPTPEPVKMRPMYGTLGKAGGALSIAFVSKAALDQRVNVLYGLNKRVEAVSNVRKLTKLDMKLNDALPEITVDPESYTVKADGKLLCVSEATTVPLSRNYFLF
# Protocol Description: biochemical
# Format: biochemical
# Settings: read-out: Percentage inhibition at 100 ug/mL
Measure: inhibition at 100 µg/mL (%)
The reply should contain only the number, in %.

Query block: Query: inhibition at 100 µg/mL; subject: C#CCOc1cccc2ccccc12
Result block: 65.3

Query block: Proceed to C#CCOc1ccc(Cl)cc1Br
Result block: 81.1

Query block: Check C#CCOc1ccc(C(C)(C)c2ccc(OCC#C)cc2)cc1 too.
Result block: 89.4

Query block: How about C#CCOc1ccc(C)cc1Br ?
Result block: 85.9

Query block: Record: C#CCOc1ccc(S(=O)(=O)c2ccc(OCC#C)cc2)cc1
Result block: 74.9

Query block: What would you report for C#CCNc1cccc2ccccc12 ?
Result block: 51.5

New cases:
Query block: State the recorded inhibition at 100 µg/mL for this entry: C#CCOc1ccc2ccccc2c1
Result block: 41.9

Query block: Lookup C#CCOc1ccc([N+](=O)[O-])cc1
Result block: 65.8

Query block: Try C#CCOc1ccc(Br)cc1Cl next.
Result block: 82

Query block: Then C#CCNc1ccc(Br)c(C)c1 ?
Result block: 45.3

Query block: Here is the next compound: C#CCOc1ccc(Br)cc1Br
Result block: 86.5

Query block: Thanks! And C#CCOc1ccc(F)cc1Br ?
Result block: 79.6

---

Measure: melting point
Enter the number, and then the unit.

Here's what some known entries look like.
Query block: What measured melting point goes with C#CCOc1ccc([N+](=O)[O-])cc1 [Compound 2f, 1-nitro-4-(prop-2-ynyloxy)benzene] ?
Result block: 129 °C

Query block: Likewise for C#CCNc1ccc(Br)c(C)c1 [Compound 8c, 4-bromo-3-methyl-N-(prop-2-ynyl)aniline] ?
Result block: 40.85 °C

Let us examine a further case.
Query block: Reported melting point for C#CCOc1ccc(S(=O)(=O)c2ccc(OCC#C)cc2)cc1 [Compound 4b] : what is it?
Result block: 136 °C
